- Tested on: MKL-1
- testDescription: qHTS assay to identify novel small-molecules to repurpose for Merkel cell carcinoma treatment (AID 1296009); further: nearly all actives have a fitted effect of over 60% in size
- conditionDetails: MCC and control cell lines, CellTiter-Glo viability, 72 h; series mostly up to 46 µM
Inconclusive results are not listed. The source made the active and inactive calls. The call rests on the fitted dose curve; in most records, active means well fitted inhibition curve with a large enough effect; inconclusive means small, poorly fitted or top-dose-only effect; inactive means flat fitted curve, though single readings scatter.
Outcomes: 1.0 = active, 0.0 = inactive

>>> df
                                    molecule  testedsystem  labelvalue
 0  O=C(Nc1ccc(F)c(C(F)(F)F)c1)Nc1nnc(-c2ccncc2)s1         MKL-1         0.0
 1  CCc1cc(Nc2nccc(-c3c(-c4ccc(OC)c(C(=O)Nc5c(F)cccc5F)c4)nc4ccccn34)n2)c(OC)cc1N1CCC(N2CCN(S(C)(=O)=O)CC2)CC1         MKL-1         0.0
 2  CC(C)C[C@H](NC(=O)[C@@H](O)[C@H](N)Cc1ccccc1)C(=O)O         MKL-1         0.0
 3  COCCNCCCn1c(C(=O)CF)c(-c2ccc(C)cc2)c2c(N)ncnc21         MKL-1         0.0
 4                     O=c1[nH]cnc2[nH]ncc12         MKL-1         0.0
 5  O=C1[C@H](Cc2ccc(O)cc2)N2C(=O)CCN(C(=O)NCc3ccccc3)[C@H]2CN1Cc1cccc2ccccc12         MKL-1         1.0
 6  O=C1CCC(N2C(=O)c3ccccc3C2=O)C(=O)N1 (stereo not given)         MKL-1         0.0
 7                      O=NN(CCCl)C(=O)NCCCl         MKL-1         0.0
 8  CNCc1ccc(-c2[nH]c3cc(F)cc4c3c2CCNC4=O)cc1         MKL-1         0.0
 9  CC(C)OC(=O)C1=CN(C(=O)c2ccc(F)c(F)c2)CC(C)(C)c2c1[nH]c1ccccc21         MKL-1         0.0
10  Cc1c(C)c2c(c(C)c1O)CCC(C)(COc1ccc(CC3SC(=O)NC3=O)cc1)O2 (stereo not given)         MKL-1         0.0
11           NC(=O)c1ccc(I)c([N+](=O)[O-])c1         MKL-1         0.0
12  NC(=O)c1ccc(-c2nc(-c3ccc4c(c3)OCCO4)c(-c3ccccn3)[nH]2)cc1         MKL-1         0.0
13  Cc1ccnc(NS(=O)(=O)c2ccc(NC(=O)Nc3ccc(S(=O)(=O)Nc4nccc(C)n4)cc3)cc2)n1         MKL-1         0.0
14  C[C@]12CC[C@H](O)CC1=CC[C@@H]1[C@H]2CC[C@]2(C)C(c3cccnc3)=CC[C@H]12         MKL-1         0.0
15  NCCCC(N)(C(=O)O)C(F)F (stereo not given)         MKL-1         0.0
16  CNC(=O)c1ccc(N2C(=S)N(c3ccc(C#N)c(C(F)(F)F)c3)C(=O)C2(C)C)cc1F         MKL-1         0.0
17  COCC(=O)NCC=Cc1ccc2ncnc(Nc3ccc(Oc4ccc(C)nc4)c(C)c3)c2c1         MKL-1         0.0
18  CCCS(=O)(=O)Nc1ccc(F)c(C(=O)c2c[nH]c3ncc(Cl)cc23)c1F         MKL-1         0.0
19  COc1ccc(-c2oc3cc(OC)ccc3c2C(=O)c2ccc(C#N)cc2)cc1         MKL-1         0.0
